test system: arrhythmia induced by an intravenous administration of calcium chloride; experiment: Antiarrhythmic activity on a model of arrhythmia induced by intravenous calcium chloride (antagonism to calcium) in mice; type: in vivo; details: white mice; intraperitoneal dose 5 mg/kg, 20-40 minutes before
MEASURED ATTRIBUTE: Dose of calcium chloride causing arrythmia in animals under experiment

[
  {
    "COMPOUND": "COC(=O)CCN(C(=O)c1ccccc1)N(C)C",
    "RESULT": "97,6 mg/kg"
  },
  {
    "COMPOUND": "COC(=O)CCN(C(=O)CCO)N(C)C",
    "RESULT": "102,3 mg/kg"
  },
  {
    "COMPOUND": "CNC(=O)N(CCC(=O)OC)N(C)C",
    "RESULT": "112,0 mg/kg"
  },
  {
    "COMPOUND": "CN(C)N(CCC(N)=O)C(=O)CCO",
    "RESULT": "93 mg/kg"
  },
  {
    "COMPOUND": "CCCCCCCCCCCCCCCCCC(=O)N(CCC(N)=O)N(C)C",
    "RESULT": "102,4 mg/kg"
  },
  {
    "COMPOUND": "COC(=O)CC(C(=O)OC)N(C(=O)Nc1ccccc1)N(C)C (stereo not drawn)",
    "RESULT": "92,4 mg/kg"
  },
  {
    "COMPOUND": "C=CCNC(=S)N(CCC(N)=O)N(C)C",
    "RESULT": "127 mg/kg"
  },
  {
    "COMPOUND": "CN(C)N(CCC#N)C(=O)c1ccccc1F",
    "RESULT": "101,5 mg/kg"
  },
  {
    "COMPOUND": "COC(=O)C(C)CN(C(=O)c1ccccc1F)N(C)C (stereo not drawn)",
    "RESULT": "93,5 mg/kg"
  },
  {
    "COMPOUND": "CN(C)N(CCC(N)=O)C(=O)Nc1ccccc1",
    "RESULT": "92,0 mg/kg"
  },
  {
    "COMPOUND": "CCC(=O)N(CCC#N)N(C)C",
    "RESULT": "96,5 mg/kg"
  },
  {
    "COMPOUND": "CCCC(=O)N(CCC(=O)OC)N(C)C",
    "RESULT": "105,1 mg/kg"
  }
]
